pIC50: −log10 of the molar value.
Hi, quick share: literature pIC50 data for Plasminogen (Homo sapiens, UniProt P00747), several sources combined.
MEASURE NAME: pIC50

compound=COc1ccc(CCC(=O)Oc2ccc3cc(C(=N)N)ccc3c2)cc1OC measure_name=pIC50 test_value=5.40
compound=N=C(N)c1cc2ccc(OC(=O)c3ccco3)cc2o1 measure_name=pIC50 test_value=7.38
compound="CC(=N)N1CCC(Oc2ccc3c(c2)C(C(C)C)C(=O)N3Cc2ccc3ccc(C(=N)N)cc3c2)CC1 (centres unmarked)" measure_name=pIC50 test_value=6.20

[1] Cc1ccc(CCC(=O)Oc2ccc3cc(C(=N)N)ccc3c2)cc1
[2] Cc1cc(C(=O)NC(C)C)ccc1-c1ccc(CC(NC(=O)[C@H]2CC[C@H](CN)CC2)C(=O)Nc2ccc3cn[nH]c3c2)cc1 (mixture of isomers)
### Prompt // select label with min value of measured pIC50 from [ 1 , 2 ] // output: label of the selected item
### Response 1
(1: 5.70, 2: 8.96)

---

Hi, quick share: literature IC50 data for Plasminogen (Homo sapiens, UniProt P00747), several sources combined.

Guide cases for IC50, answers given:
molecule=Cc1cc(C(=O)NCc2ccc(CN)cc2)c(C)n1Cc1csc(-c2ccccc2)n1 target_entity="Plasminogen (Homo sapiens, UniProt P00747)" test_value="> 40 µM"
molecule="CCC(C)[C@@H](NC)C(=O)N[C@@H](Cc1ccc(Cl)c(Cl)c1)C(=O)NCc1ccc(N)nc1 (stereo partly shown)" target_entity="Plasminogen (Homo sapiens, UniProt P00747)" test_value="> 10 µM"
molecule=C[C@H](NC(=O)[C@@H](CO)NC(=O)OCC1CCCCC1)C(=O)N[C@H](C=O)CCCNC(=N)N target_entity="Plasminogen (Homo sapiens, UniProt P00747)" test_value="0.25 to 2.5 µM"

Attention now shifts to the item below.
### Prompt Find the recorded IC50 belonging to N=C(N)c1ccc(OC(=O)CCN)c(C(=O)c2ccccc2)c1 and report it.
### Response > 10 µM

---

Hi, quick share: literature IC50 data for Plasminogen (Homo sapiens, UniProt P00747), several sources combined.
MEASURE NAME: IC50 (nM)

[1] CC(=N)N1CCC(Oc2ccc3c(c2)/C(=C/C(=O)O)C(=O)N3Cc2ccc3ccc(C(=N)N)cc3c2)CC1
[2] CN(C)c1cccc(C(=O)Oc2ccc3cc(C(=N)N)ccc3c2)c1
[3] N=C(N)c1ccc(OC(=O)C2CC2)c([N+](=O)[O-])c1
[4] Cc1cc2[nH]c(C(C)C)nc2cc1-c1ccc(C[C@@H](NC(=O)C2CCC(CN)CC2)C(=O)Nc2ccc3[nH]c(=O)[nH]c3c2)cc1 (single isomer, unassigned; enantiomer 1)
### Prompt Hey, can you sort those compounds up there by IC50, smallest first? Sort the labels as requested; that list is your answer.
### Response 4, 1, 3, 2

---

Hi, quick share: literature pIC50 data for Plasminogen (Homo sapiens, UniProt P00747), several sources combined.
pIC50: −log10 of the molar value.

smiles_representation=N=C(N)c1ccc(OC(=O)CCNC(=O)OCc2ccccc2)c(C(=O)c2ccccc2)c1 test_value="< 5.00"
smiles_representation=Nc1ccc(CNC(=O)[C@H](Cc2cccc(C(F)(F)F)c2)NC(=O)c2ccc[nH]2)cn1 test_value="< 5.00"
smiles_representation=CC(C)OC(=O)N[C@H](CO)C(=O)N[C@@H](C)C(=O)N[C@H](C=O)CCCNC(=N)N test_value="< 5.60"
smiles_representation=CC(=N)N1CCC(Oc2ccc3c(c2)n(Cc2ccc4ccc(C(=N)N)cc4c2)c(=O)n3CC(=O)OCC(C)C)CC1 test_value=5.37
smiles_representation=N=C(N)c1nc2ccc(OC(=O)c3ccsc3)cc2s1 test_value=7.68
smiles_representation=CSc1ccc(C(=O)Oc2ccc(C(=N)N)cc2C(=O)c2ccccc2)cc1 test_value=6.70
smiles_representation=C[C@H](NC(=O)[C@@H](CO)NS(=O)(=O)CCc1ccccc1)C(=O)N[C@H](C=O)CCCNC(=N)N test_value="5.60 to 6.60"

Attention now shifts to the item below.
### Prompt Find the recorded pIC50 belonging to C[C@H](NC(=O)[C@@H](CO)NS(=O)(=O)/C=C/c1ccccc1)C(=O)N[C@H](C=O)CCCNC(=N)N and report it.
### Response 5.60 to 6.60
